# system-name: Biotinylated recombinant human CD3εδ (Acro Biosystems, CDD-H82W6) (human) (UniProt P07766)
# Sequence (P07766 23-126, stated change not applied, chain 1 of 2): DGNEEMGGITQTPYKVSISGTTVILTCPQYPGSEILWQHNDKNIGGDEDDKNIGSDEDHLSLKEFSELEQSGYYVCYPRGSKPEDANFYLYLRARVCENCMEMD
# Sequence (P04234 22-105, stated change not applied, chain 2 of 2, further chain): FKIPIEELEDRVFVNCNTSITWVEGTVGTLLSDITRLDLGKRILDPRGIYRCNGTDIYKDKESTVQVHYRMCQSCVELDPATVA
# measurement-description: Octet BLI, biotinylated CD3εδ on streptavidin sensors, 1:1 model
pKd: −log10 of the molar value.
measurement-name: pKd

INSERT INTO assay_data (binder, assay_result) VALUES
  ('EGFR-CD3 DuetMab with anti-CD3 variant AZ Vκ 17 + AZ VH SN75 (bispecific antibody, part only; not given: anti-EGFR arm, constant regions, V domains shown, not shown: another chain or arm of the molecule; a dimerising Fc or GST; small tags and cut ends) VH: EVQLVESGGALVKPGGSLRLSCAASGFTFSNAWMHWVRQAPGKQLEWVAQIKDRSQTYATYYAESVKGRFTISRDDSKNTLYLQMNSLKTEDTAVYYCRGVYYANAPFDYWGQGTLVTVSS VL: DIVMTQSPLSLPVTPGEPASISCRSSQSLVHNTGNTYLSWYLQKPGQSPQSLIYKVSNRASGVPDRFSGSGSGTDFTLKISRVEAEDVGVYYCGQGTQAPFTFGSGTKVEIK', 6.07),
  ('EGFR-CD3 DuetMab with anti-CD3 variant AZ Vκ 26 + AZ VH E79 (bispecific antibody, part only; not given: anti-EGFR arm, constant regions, V domains shown, not shown: another chain or arm of the molecule; a dimerising Fc or GST; small tags and cut ends) VH: EVQLVESGGALVKPGGSLRLSCAASGFTFTEAWMHWVRQAPGKQLEWVAQIKDRSQTYATYYAESVKGRFTISRDDSKNTLYLQMNSLKTEDTAVYYCRGVYYAVTPFDYWGQGTLVTVSS VL: DIVMTQSPLSLPVTPGEPASISCRSSQSLVHNTGNTYLSWYLQKPGQSPQSLIYKVSNRASGVPDRFSGSGSGTDFTLKISRVEAEDVGVYYCGQGTQAPFSFGSGTKVEIK', 5.33),
  ('EGFR-CD3 DuetMab with anti-CD3 variant AZ Vκ 17 + AZ VH SN79 (bispecific antibody, part only; not given: anti-EGFR arm, constant regions, V domains shown, not shown: another chain or arm of the molecule; a dimerising Fc or GST; small tags and cut ends) VH: EVQLVESGGALVKPGGSLRLSCAASGFTFSNAWMHWVRQAPGKQLEWVAQIKDRSQTYATYYAESVKGRFTISRDDSKNTLYLQMNSLKTEDTAVYYCRGVYYAVTPFDYWGQGTLVTVSS VL: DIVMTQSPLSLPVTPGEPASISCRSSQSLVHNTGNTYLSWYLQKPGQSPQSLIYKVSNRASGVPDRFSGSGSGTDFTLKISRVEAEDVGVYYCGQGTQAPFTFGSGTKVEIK', 5.69),
  ('EGFR-CD3 DuetMab with anti-CD3 variant AZ Vκ 26 + AZ VH R75 (bispecific antibody, part only; not given: anti-EGFR arm, constant regions, V domains shown, not shown: another chain or arm of the molecule; a dimerising Fc or GST; small tags and cut ends) VH: EVQLVESGGALVKPGGSLRLSCAASGFTFTRAWMHWVRQAPGKQLEWVAQIKDRSQTYATYYAESVKGRFTISRDDSKNTLYLQMNSLKTEDTAVYYCRGVYYANAPFDYWGQGTLVTVSS VL: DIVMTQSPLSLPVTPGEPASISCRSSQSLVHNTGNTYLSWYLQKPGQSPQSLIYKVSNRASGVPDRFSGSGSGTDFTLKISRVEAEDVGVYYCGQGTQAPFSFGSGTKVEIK', 6.66),
  ('EGFR-CD3 DuetMab with anti-CD3 variant AZ Vκ 29 + AZ VH E82 (bispecific antibody, part only; not given: anti-EGFR arm, constant regions, V domains shown, not shown: another chain or arm of the molecule; a dimerising Fc or GST; small tags and cut ends) VH: EVQLVESGGALVKPGGSLRLSCAASGFTFTEAWMHWVRQAPGKQLEWVAQIKDRSQTYATYYAESVKGRFTISRDDSKNTLYLQMNSLKTEDTAVYYCRGVYYANTPFDYWGQGTLVTVSS VL: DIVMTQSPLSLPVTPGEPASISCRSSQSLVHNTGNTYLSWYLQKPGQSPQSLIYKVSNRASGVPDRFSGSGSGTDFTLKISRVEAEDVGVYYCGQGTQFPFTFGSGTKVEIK', 5.30);

The reported numbers originate from patent US20250019438A1.
